System: N-87 (human gastric cancer cells)
ASSAY TEXT: MTT cancer cell growth inhibition
Type: cell-based
TEST PARAMETERS: Homo sapiens, 72 h, MTT, 72 hours incubation, N-87 cells; read-out: GI50 N-87
From the text: MTT assay principle is yellow MTT can penetrate membrane into the cell, succinic dehydrogenase of the mitochondria in living cells can make exogenous MTT reduction of insoluble in water of blue-violet acicular formazan for crystallization and deposition in the cell, crystallization can be dissolved dimethyl sulfoxide (DMSO) solution, detected its absorbance at 490 nm/570 nm wavelength by enzyme-linked immunosorbent assay, which can reflect the number of cells. […] e) 570 nm readings. […]
GI50 for assorted compounds
In your response, the unit should come after the numeric value.

Sure, the documented GI50 for C/C=C1\NC(=O)c2nc(ccc2SC)CNC(=O)C[C@@H](/C=C/CCSC(C)=O)OC(=O)[C@H](CCCCN)NC1=O is 32 nM

According to the records, this compound C/C=C1\NC(=O)c2cccc(n2)CNC(=O)C[C@@H](/C=C/CCSC(=O)CCC)OC(=O)[C@H](C(C)C)NC1=O displays GI50 of 37 nM

###

STUDY TARGET: HDAC2 (Homo sapiens, UniProt Q92769);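 also: HDAC2 enzyme with an acetyl-lysine fluorescent substrate, then developer added, fluorescence read at excitation 360 nm and emission 460 nm, inhibition measured across several compound concentrations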
Sequence (Q92769 whole entry, species assumed): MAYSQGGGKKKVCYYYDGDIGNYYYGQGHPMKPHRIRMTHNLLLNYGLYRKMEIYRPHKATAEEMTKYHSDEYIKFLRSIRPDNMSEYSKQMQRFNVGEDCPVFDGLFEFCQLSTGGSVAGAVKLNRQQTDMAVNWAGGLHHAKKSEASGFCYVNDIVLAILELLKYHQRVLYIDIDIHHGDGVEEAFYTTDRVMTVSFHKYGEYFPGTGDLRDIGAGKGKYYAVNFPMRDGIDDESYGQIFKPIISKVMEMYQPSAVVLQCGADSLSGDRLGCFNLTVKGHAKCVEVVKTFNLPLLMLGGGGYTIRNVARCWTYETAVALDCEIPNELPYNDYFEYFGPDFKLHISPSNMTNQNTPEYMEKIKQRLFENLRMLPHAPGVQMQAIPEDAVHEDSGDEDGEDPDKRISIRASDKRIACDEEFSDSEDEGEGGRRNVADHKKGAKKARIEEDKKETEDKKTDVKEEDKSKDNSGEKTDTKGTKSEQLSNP
ENDPOINT NAME: IC50 (nM)
Report the figure in nM without appending any unit label.

MOL: C/C=C1\NC(=O)c2cccc(n2)CNC(=O)C[C@@H](/C=C/CCSC(=O)CCCCCCC)OC(=O)[C@H](CCSC)NC1=O
IC50 / nM: 21
//
MOL: C/C=C1\NC(=O)c2cccc(n2)CCNC(=O)C[C@@H](/C=C/CCS)OC(=O)[C@H](C(C)C)NC1=O
IC50 / nM: 34
//
MOL: C/C=C1\NC(=O)c2cccc(n2)CNC(=O)C[C@@H](/C=C/CCSC(C)=O)OC(=O)[C@H](CCCCNC(=O)OCC2c3ccccc3-c3ccccc32)NC1=O
IC50 / nM: 56
//
MOL: C/C=C1\NC(=O)c2ncc(SC)c(n2)CNC(=O)C[C@@H](/C=C/CCSC(C)=O)OC(=O)[C@H](C(C)C)NC1=O
IC50 / nM: 43
//
MOL: C/C=C1\NC(=O)c2cccc(n2)CNC(=O)C[C@@H](/C=C/CCSC(C)=O)OC(=O)[C@H](C(C)C)NC1=O
IC50 / nM: 17

Here C/C=C1\NC(=O)c2cc(SC)cc(n2)CNC(=O)C[C@@H](/C=C/CCSC(C)=O)OC(=O)[C@H](CC)NC1=O was tested on HDAC2 (Homo sapiens, UniProt Q92769), and its IC50 came to 26

###

Here, each record is paired with measured GI50 data.
Test system: U937 (human leukemia cells)
ASSAY TEXT: MTT cancer cell growth inhibition
Type: cell-based
TEST PARAMETERS: Homo sapiens, U-937, 72 h, U937 cells, MTT, 72 hours incubation; read-out: GI50 U93
Express your answer in nM, writing the number without its unit.

Below are worked cases with known answers.
MOL: C/C=C1\NC(=O)c2cc(SC)cc(n2)CNC(=O)C[C@@H](/C=C/CCSC(=O)CCC)OC(=O)[C@H](C(C)C)NC1=O
GI50 (nM): 50
--
MOL: C/C=C1\NC(=O)c2nc(ccc2C)CNC(=O)C[C@@H](/C=C/CCSC(=O)CCCCCCC)OC(=O)[C@H](C(C)C)NC1=O
GI50 (nM): 870

So for C/C=C1\NC(=O)c2cc(SC)cc(n2)CNC(=O)C[C@@H](/C=C/CCSC(C)=O)OC(=O)[C@H](C)NC1=O , the logged GI50 turned out to be 30

###

Tested on: BGC-823 (human gastric cancer cells)
ASSAY TEXT: MTT cancer cell growth inhibition
Type: cell-based
TEST PARAMETERS: Homo sapiens, BGC-823, 72 h, MTT, 72 hours incubation; read-out: GI50 BG
ENDPOINT NAME: GI50 (nM)
All answers are understood in nM, so give the number only.

MOL: C/C=C1\NC(=O)c2cc(F)cc(n2)CNC(=O)C[C@@H](/C=C/CCSC(=O)CCCCC)OC(=O)[C@H](C(C)C)NC1=O
GI50 / nM: 40

The compound identified as C/C=C1\NC(=O)c2cccc(n2)CNC(=O)C[C@@H](/C=C/CCSC(C)=O)OC(=O)[C@H](CCCCN)NC1=O registered its GI50 at 1220

# GI50 (compound: C/C=C1\NC(=O)c2cc(F)cc(n2)CNC(=O)C[C@@H](/C=C/CCSC(=O)CC)OC(=O)[C@H](C(C)C)NC1=O ) is 40

What the record says about C/C=C1\NC(=O)c2ccc(F)c(n2)CNC(=O)C[C@@H](/C=C/CCSC(C)=O)OC(=O)[C@@H](C)NC1=O : GI50 is 30

The measured GI50 associated with C/C=C1\NC(=O)c2ccc(F)c(n2)CNC(=O)C[C@@H](/C=C/CCSC(=O)CCCCCCC)OC(=O)[C@H](C(C)C)NC1=O reads 60

GI50 recorded for this compound, C=C1NC(=O)c2nc(ccc2F)CNC(=O)C[C@@H](/C=C/CCSC(C)=O)OC(=O)[C@H](C(C)C)NC1=O , is 10

# GI50 (compound: C/C=C1\NC(=O)c2nc(ccc2F)CNC(=O)C[C@@H](/C=C/CCSC(=O)CCCCCCC)OC(=O)[C@H](C(C)C)NC1=O ) is 30

In plain terms, C/C=C1\NC(=O)c2ccc(F)c(n2)CNC(=O)C[C@@H](/C=C/CCSC(C)=O)OC(=O)[C@H](Cc2ccc(O)cc2)NC1=O has a documented GI50 of 10

Entry C/C=C1\NC(=O)c2cc(C)cc(n2)CNC(=O)C[C@@H](/C=C/CCSC(C)=O)OC(=O)[C@H](Cc2ccccc2)NC1=O ; GI50 = 50

Recorded result, C/C=C1\NC(=O)c2cccc(n2)NC(=O)C[C@@H](/C=C/CCSC(C)=O)OC(=O)[C@H](C(C)C)NC1=O , GI50: 5880

###

Below is a list of entries, each paired with its recorded GI50 value.
Test system: PANC-1 (Pac-1, human pancreatic cancer cells)
ASSAY TEXT: MTT cancer cell growth inhibition
Format: cell-based
TEST PARAMETERS: Homo sapiens, PANC-1, 72 h, PANC-1 cells, MTT, 72 hours incubation; read-out: GI50 PAN
State the value with its unit after it.

MOL: C/C=C1\NC(=O)c2cc(SC)cc(n2)CNC(=O)C[C@@H](/C=C/CCSC(=O)CCCCCCC)OC(=O)[C@H](CC)NC1=O
STUDY TARGET: PANC-1 (Pac-1, human pancreatic cancer cells)
ENDPOINT NAME: GI50
RESULT: 80 nM
//
MOL: C/C=C1\NC(=O)c2cc(SC)cc(n2)CNC(=O)C[C@@H](/C=C/CCSC(C)=O)OC(=O)[C@H](CCCCN)NC1=O
STUDY TARGET: PANC-1 (Pac-1, human pancreatic cancer cells)
ENDPOINT NAME: GI50
RESULT: 80 nM
//
MOL: C/C=C1\NC(=O)c2nc(ccc2SC)CNC(=O)C[C@@H](/C=C/CCSC(C)=O)OC(=O)[C@H](CCCCN)NC1=O
STUDY TARGET: PANC-1 (Pac-1, human pancreatic cancer cells)
ENDPOINT NAME: GI50
RESULT: 60 nM

Tested system PANC-1 (Pac-1, human pancreatic cancer cells); GI50 recorded for C/C=C1\NC(=O)c2nc(ccc2SC)CNC(=O)C[C@@H](/C=C/CCSC(C)=O)OC(=O)[C@H](Cc2cccc3ccccc23)NC1=O was 30 nM

PANC-1 (Pac-1, human pancreatic cancer cells) data for C=C1NC(=O)c2ccc(SC)c(n2)CNC(=O)C[C@@H](/C=C/CCSC(C)=O)OC(=O)[C@H](C)NC1=O ; its GI50: 50 nM

Value sought: GI50, system PANC-1 (Pac-1, human pancreatic cancer cells), item C/C=C1\NC(=O)c2cc(SCCC)cc(n2)CNC(=O)C[C@@H](/C=C/CCSC(=O)CCCCCCC)OC(=O)[C@H](CC)NC1=O . Result: 50 nM

Observed GI50, PANC-1 (Pac-1, human pancreatic cancer cells), C/C=C1\NC(=O)c2nc(ccc2SC)CNC(=O)C[C@@H](/C=C/CCS)OC(=O)[C@H](C)NC1=O : 10 nM

Form: item C/C=C1\NC(=O)c2ccc(SC)c(n2)CNC(=O)C[C@@H](/C=C/CCSC(C)=O)OC(=O)[C@H](Cc2ccccc2)NC1=O ; test system PANC-1 (Pac-1, human pancreatic cancer cells); GI50: 50 nM

Query C/C=C1\NC(=O)c2cc(SCC)cc(n2)CNC(=O)C[C@@H](/C=C/CCSC(=O)CCCCC)OC(=O)[C@H](C(C)C)NC1=O on PANC-1 (Pac-1, human pancreatic cancer cells); GI50 returned: 10 nM

// returns GI50 for C/C=C1\NC(=O)c2nc(ccc2SC)CNC(=O)C[C@@H](/C=C/CCSC(=O)CCCCC)OC(=O)[C@H](C(C)C)NC1=O with PANC-1 (Pac-1, human pancreatic cancer cells); value = 20 nM

Field GI50 (PANC-1 (Pac-1, human pancreatic cancer cells)), entry C/C=C1\NC(=O)c2ccc(SC)c(n2)CCNC(=O)C[C@@H](/C=C/CCSC(C)=O)OC(=O)[C@H](C(C)C)NC1=O : 30 nM
